test: inhibitors of NFkB activation in CF airway cells, SAR follow-up, KKLEB cells, panel, IL8 HTRF, NFkB-GFP (AID 651592);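 note: immortalized cystic fibrosis airway epithelial KKLEB cells with an NF-kB GFP reporter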
conditions used: PAF/TNFa-induced NFkB-GFP / IL8 HTRF, CF-PAF assay, run 6
This section presents compounds with their documented IC50 values.

O=C(Nc1ccc(N2CCN(C(=O)c3ccc(F)cc3)CC2)cc1)c1ccncc1    > 66 µM
O=C(Nc1ccc(N2CCN(C(=O)c3ccccc3)CC2)cc1)c1cccc(Br)c1    28.5 µM
O=C(Nc1ccc(N2CCN(C(=O)c3ccccc3Cl)CC2)cc1)c1cccc(Br)c1    > 66 µM
O=C(Nc1ccc(N2CCN(C(=O)c3ccc(F)cc3)CC2)cc1)c1cccc(Br)c1    > 66 µM
O=C(Nc1ccc(N2CCN(C(=O)c3ccc(F)cc3)CC2)cc1)c1cc(Br)cc(Br)c1    > 66 µM

// O=C(Nc1ccc(N2CCN(C(=O)c3ccccc3Cl)CC2)cc1)c1cc(Br)cc(Br)c1 : IC50 value = > 66 µM

// O=C(Nc1ccc(N2CCN(C(=O)c3ccc(F)cc3)CC2)cc1)c1cncc(Br)c1 : IC50 value = 3.82 µM

// CCOc1ccc(NCc2cc3c(-c4ccc(F)cc4)nn(-c4ccccc4)c3[nH]c2=O)cc1 : IC50 value = 2.48 µM

// CCOc1ccc(NCc2cc3c(C(C)(C)C)nn(-c4ccc(Cl)cc4)c3[nH]c2=O)cc1 : IC50 value = 10.8 µM

// O=C(Nc1ccc(N2CCN(C(=O)c3ccccc3Cl)CC2)cc1)c1ccccn1 : IC50 value = > 66 µM

Numbers sourced from PubChem BioAssay AID651592.
